# target desc: T1, RBFOX1 RRM (Homo sapiens, UniProt Q9NWB1 109-208)
# T1 sequence: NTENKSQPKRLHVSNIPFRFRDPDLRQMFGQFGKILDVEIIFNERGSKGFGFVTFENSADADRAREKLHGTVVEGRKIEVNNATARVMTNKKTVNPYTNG
# test name: EMSA; HiTS-Eq, 1 nM pool, 10 min; buffer printed only for the single-RNA assays: 10 mM Tris pH 7.5, 150 mM NaCl, 3.4 mM EDTA, 0.001% NP-40, 30 C
# condition context: tags: His6 N-terminal (pET28a); label: 5' 32P
Over roughly 16,000 sequences, “ka relative to ugcaugu” has its median near 0.0091; the highest 2% begin near 0.032. This excerpt belongs to a sample that is enriched for the highest values.
measured endpoint: binding signal

# example entries with known answers
>  <binder>
CUGGCUG (DNA:RNA) RNA: GGGAGACCGGAAUUCAGAUUGUCCCUGGCUGUUAAAUCCCGUCGUAGCCACCA DNA 1: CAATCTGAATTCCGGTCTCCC DNA 2: TGGTGGCTACGACGGGATT

>  <result>
0.0348 KA relative to UGCAUGU

$$$$
>  <binder>
UUGGCUG (DNA:RNA) RNA: GGGAGACCGGAAUUCAGAUUGUCCUUGGCUGUUAAAUCCCGUCGUAGCCACCA DNA 1: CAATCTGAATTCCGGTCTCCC DNA 2: TGGTGGCTACGACGGGATT

>  <result>
0.0406 KA relative to UGCAUGU

$$$$
>  <binder>
CUUAACU (DNA:RNA) RNA: GGGAGACCGGAAUUCAGAUUGUCCCUUAACUUUAAAUCCCGUCGUAGCCACCA DNA 1: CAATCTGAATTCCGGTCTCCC DNA 2: TGGTGGCTACGACGGGATT

>  <result>
0.0019 KA relative to UGCAUGU

$$$$
>  <binder>
CUGUGUG (DNA:RNA) RNA: GGGAGACCGGAAUUCAGAUUGUCCCUGUGUGUUAAAUCCCGUCGUAGCCACCA DNA 1: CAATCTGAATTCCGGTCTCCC DNA 2: TGGTGGCTACGACGGGATT

>  <result>
0.027 KA relative to UGCAUGU

$$$$
>  <binder>
AACCAGU (DNA:RNA) RNA: GGGAGACCGGAAUUCAGAUUGUCCAACCAGUUUAAAUCCCGUCGUAGCCACCA DNA 1: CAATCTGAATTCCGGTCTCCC DNA 2: TGGTGGCTACGACGGGATT

>  <result>
0.000945 KA relative to UGCAUGU

$$$$
>  <binder>
UGGCUCU (DNA:RNA) RNA: GGGAGACCGGAAUUCAGAUUGUCCUGGCUCUUUAAAUCCCGUCGUAGCCACCA DNA 1: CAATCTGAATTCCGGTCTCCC DNA 2: TGGTGGCTACGACGGGATT

>  <result>
0.0197 KA relative to UGCAUGU

$$$$
>  <binder>
GGGUACA (DNA:RNA) RNA: GGGAGACCGGAAUUCAGAUUGUCCGGGUACAUUAAAUCCCGUCGUAGCCACCA DNA 1: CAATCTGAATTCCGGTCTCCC DNA 2: TGGTGGCTACGACGGGATT

>  <result>
0.0112 KA relative to UGCAUGU

$$$$
>  <binder>
GUGGCUG (DNA:RNA) RNA: GGGAGACCGGAAUUCAGAUUGUCCGUGGCUGUUAAAUCCCGUCGUAGCCACCA DNA 1: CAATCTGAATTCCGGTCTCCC DNA 2: TGGTGGCTACGACGGGATT

>  <result>
0.0289 KA relative to UGCAUGU

$$$$

Identify the reported binding signal for the following entry. CGAGUCG (DNA:RNA) RNA: GGGAGACCGGAAUUCAGAUUGUCCCGAGUCGUUAAAUCCCGUCGUAGCCACCA DNA 1: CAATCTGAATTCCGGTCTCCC DNA 2: TGGTGGCTACGACGGGATT
0.0112 KA relative to UGCAUGU
